Experiment: RP-HPLC retention on Cosmosil Cholester column, buffer pH 7.4-acetonitrile
Format: physicochemical
Details: slope of Soczewiński-Wachtmeister equation, acetonitrile φ 0.4–0.6
Method: Retention parameters reported as the log k values were calculated by the expression:(1) logk=log(tR−t0)/t0 where tR and t0 are the retention times of the solute and a non-retained compound (citric acid), respectively. […] As mobile phases buffer-acetonitrile mixtures were used. […] With the ODS column acetonitrile concentration in the effluent, expressed as a volume fraction (φ, v/v), was changed in the range 0.3–0.6, with the constant step of 0.1. […] They were detected under UV light at 210 and 254 nm. […]
Label criterion met when s Cholester is strictly below 4; at or above that, label criterion not met.

[ask] Report whether reported s Cholester is lower than 4 (strictly) for CCc1nnc2n(c1=O)CCN2c1cccc(Cl)c1 [Compound 4]
[reply] criterion met

[ask] What about CCOC(=O)Cc1nnc2n(c1=O)CCN2c1cccc(Cl)c1 [Compound 15] ?
[reply] criterion not met

[ask] What about CCOc1ccc(N2CCn3c2nnc(Cc2ccccc2Cl)c3=O)cc1 [Compound 53] ?
[reply] criterion not met

[ask] What about O=c1c(Cc2ccccc2)nnc2n1CCN2c1ccc(Cl)cc1 [Compound 57] ?
[reply] criterion not met

---
[ask] Report whether reported s Cholester is lower than 4 (strictly) for CCOc1ccc(N2CCn3c2nnc(Cc2ccccc2)c3=O)cc1 [Compound 51]
[reply] criterion not met

[ask] What about CCOC(=O)Cc1nnc2n(c1=O)CCN2c1ccccc1 [Compound 12] ?
[reply] criterion met

[ask] What about Cc1ccc(Cc2nnc3n(c2=O)CCN3c2ccc(C)cc2)cc1 [Compound 46] ?
[reply] criterion not met

* * *

assay: RP-HPLC retention on Cosmosil Cholester column, buffer pH 7.4-acetonitrile; assay type: physicochemical; conditions: extrapolated to buffer pH 7.4 as mobile phase, 25 °C
Provide the reported log kw, Cholester of each item.
Answers are plain numbers.

Example molecules with recorded log kw, Cholester:
[ask] For "Cc1cccc(N2CCn3c2nnc(-c2ccco2)c3=O)c1C" , what is its reported log kw, Cholester?
[reply] 1.66

[ask] What about "O=c1c(-c2ccco2)nnc2n1CCN2c1ccccc1" ?
[reply] 1.43

I'm hoping you can list log kw, Cholester for every molecule here, please.
1. Cc1ccc(N2CCn3c2nnc(Cc2cccc(Cl)c2)c3=O)cc1
2. COc1ccc(N2CCn3c2nnc(-c2ccccc2)c3=O)cc1
3. O=c1c(-c2ccccc2)nnc2n1CCN2c1cccc(Cl)c1

[reply]
1. 3.40
2. 2.27
3. 3.20

I'm hoping you can list log kw, Cholester for every molecule here, please.
1. O=c1c(Cc2cccc(Cl)c2)nnc2n1CCN2c1ccc(Cl)cc1
2. Cc1ccc(N2CCn3c2nnc(-c2ccco2)c3=O)cc1
3. CCc1nnc2n(c1=O)CCN2c1ccc(Cl)c(Cl)c1
4. Cc1ccccc1N1CCn2c1nnc(-c1ccccc1)c2=O

[reply]
1. 3.67
2. 2.03
3. 2.05
4. 1.88

I'm hoping you can list log kw, Cholester for every molecule here, please.
1. O=c1c(Cc2ccccc2Cl)nnc2n1CCN2c1ccc(Cl)cc1
2. COC(=O)Cc1nnc2n(c1=O)CCN2c1ccc(C)cc1
3. O=c1c(CCc2ccccc2)nnc2n1CCN2c1ccc(Cl)cc1

[reply]
1: 3.74; 2: 1.29; 3: 3.22

* * *

experiment: RP-HPLC retention on Purosphere RP-18e (ODS) column, buffer pH 7.4-acetonitrile; format: physicochemical; conditions: extrapolated to buffer pH 7.4 as mobile phase, 25 °C
MEASURED_QUANTITY: log kw, ODS
Give bare numbers.

Example compounds with recorded log kw, ODS:
[ask] For "O=c1c(-c2ccco2)nnc2n1CCN2c1cccc(Cl)c1" , what is its reported log kw, ODS?
[reply] 2.75

[ask] What about "CCc1nnc2n(c1=O)CCN2c1ccc(Cl)c(Cl)c1" ?
[reply] 2.53

[ask] What about "CCOc1ccc(N2CCn3c2nnc(Cc2ccc(Cl)cc2)c3=O)cc1" ?
[reply] 3.32

[ask] What about "COC(=O)Cc1nnc2n(c1=O)CCN2c1ccc(Cl)cc1" ?
[reply] 2.36

[ask] What about "O=c1c(-c2ccccc2)nnc2n1CCN2c1ccccc1Cl" ?
[reply] 2.43

From here, focus on the item given below.
[ask] For "O=c1c(Cc2ccccc2Cl)nnc2n1CCN2c1ccccc1" , what is its reported log kw, ODS?
[reply] 3.28
